Would you kindly list DC50 for each of these compounds?
Target: STAT6 (Homo sapiens)
Construct: These cells express endogenous STAT6; host or cells: HeLa LgBiT clone 4.14
Assay: Stat6 Degrader Assay (HiBiT based, HeLa LgBiT clone 4.14)
Assay type: cell-based
Conditions: HeLa LgBiT clone 4.14 HiBiT-STAT6, 4-24 h incubation; values given for compounds with >80% Emax; geometric mean; read-out: STAT6 degradation DC50
One number for each entry, in nM.

Worked cases, DC50 given:
- compound: "CNc1ccn(-c2ccnc3c2cc(CN2CC=C(c4c(F)cc(C(=O)N5CCC(CN6CCN(Cc7ccc8c(c7)n(C7CC7)c(=O)n8[C@H]7CCC(=O)NC7=O)C[C@@H]6C)CC5)cc4F)CC2)n3C)c(=O)c1 (single isomer, unassigned)"
  DC50 / nM: 4.5
- compound: "CNc1ccn(-c2ccnc3c2cc([C@H](C)N2CC=C(c4c(C)cc(C(=O)N(C)C5CCC(C6CCN(Cc7ccc8c(c7)n(C)c(=O)n8C7CCC(=O)NC7=O)CC6)CC5)cc4F)CC2)n3C)c(=O)c1 (stereo partly shown)"
  DC50 / nM: 0.4
- compound: "CNc1ccn(-c2ccnc3c2cc(CN2CCC(c4c(F)cc(C(=O)N5CCC(CN6CCN(Cc7ccc8c(c7)n(C)c(=O)n8C7CCC(=O)NC7=O)CC6)CC5)cc4F)CC2)n3C)c(=O)c1 (stereo not shown)"
  DC50 / nM: 1.7

Each compound below has a reported value. Please supply its DC50.
1. Cc1cc(C(=O)N2CCC(CN3CCN(Cc4ccc5c(c4)n(C)c(=O)n5C4CCC(=O)NC4=O)C[C@@H]3C)CC2)cc(F)c1C1=CCN(Cc2cc3c(-n4ccc5c(c4=O)CCN5)ccnc3n2C)CC1 (stereo partly shown)
2. CNc1ccn(-c2ccnc3c2cc(CN2CCC(c4c(F)cc(C(=O)N5CCC(CN6CCN(Cc7cc8c(cc7F)N([C@@H]7CCC(=O)NC7=O)C(=O)C87CC7)CC6)CC5)cc4F)CC2)n3C)c(=O)c1 (single isomer, unassigned)
3. CNc1cc(=O)n(-c2ccnc3c2cc(CN2CCC(c4c(F)cc(C(=O)N5CCC(CN6CCN(Cc7cc8c(cc7F)N(C7CCC(=O)NC7=O)C(=O)C87CC7)CC6)CC5)cc4F)CC2)n3C)cc1F (stereo not shown)

[1.3, 10.2, 26.9]

Give measured DC50 for every item shown.
1. CNc1ccn(-c2ccnc3c2cc(CN2CC=C(c4c(C)cc(C(=O)N(C)c5ccc(C6CCN(Cc7ccc8c(c7)C(C)(C)C(=O)N8C7CCC(=O)NC7=O)CC6)cc5)cc4F)CC2)n3C)c(=O)c1 (stereo not shown)
2. Cc1cc(C(=O)N2CCC(CN3CCN(Cc4ccc5c(c4)n(C)c(=O)n5C4CCC(=O)NC4=O)C[C@@H]3C)CC2)cc(F)c1C1=CCN([C@@H](C)c2cc3c(-n4cc(F)c5c(c4=O)CCN5)ccnc3n2C)CC1 (stereo partly shown)

1. 0.2
2. 1.4

Go through the items and report each one's DC50.
1. Cc1cc(C(=O)N2CCC(CN3CCN(Cc4ccc5c(c4)n(C4CC4)c(=O)n5C4CCC(=O)NC4=O)C[C@@H]3C)CC2)cc(F)c1C1=CCN([C@@H](C)c2cc3c(-n4ccc5c(c4=O)CCN5)ccnc3n2C)CC1 (stereo partly shown)
2. C[C@H]1CN(Cc2ccc3c(c2)C2(CC2)C(=O)N3C2CCC(=O)NC2=O)CCN1CC1CCN(C(=O)c2cc(F)c(C3CCN(Cc4cc5c(-n6ccc7c(c6=O)CCN7)ccnc5n4C)CC3)c(F)c2)CC1 (stereo partly shown)

0.7
1.5

----------
Target: STAT6 (Homo sapiens, UniProt P42226)
Construct: These cells express endogenous STAT6; host or cells: HeLa LgBiT clone 4.14
Sequence (P42226 whole entry): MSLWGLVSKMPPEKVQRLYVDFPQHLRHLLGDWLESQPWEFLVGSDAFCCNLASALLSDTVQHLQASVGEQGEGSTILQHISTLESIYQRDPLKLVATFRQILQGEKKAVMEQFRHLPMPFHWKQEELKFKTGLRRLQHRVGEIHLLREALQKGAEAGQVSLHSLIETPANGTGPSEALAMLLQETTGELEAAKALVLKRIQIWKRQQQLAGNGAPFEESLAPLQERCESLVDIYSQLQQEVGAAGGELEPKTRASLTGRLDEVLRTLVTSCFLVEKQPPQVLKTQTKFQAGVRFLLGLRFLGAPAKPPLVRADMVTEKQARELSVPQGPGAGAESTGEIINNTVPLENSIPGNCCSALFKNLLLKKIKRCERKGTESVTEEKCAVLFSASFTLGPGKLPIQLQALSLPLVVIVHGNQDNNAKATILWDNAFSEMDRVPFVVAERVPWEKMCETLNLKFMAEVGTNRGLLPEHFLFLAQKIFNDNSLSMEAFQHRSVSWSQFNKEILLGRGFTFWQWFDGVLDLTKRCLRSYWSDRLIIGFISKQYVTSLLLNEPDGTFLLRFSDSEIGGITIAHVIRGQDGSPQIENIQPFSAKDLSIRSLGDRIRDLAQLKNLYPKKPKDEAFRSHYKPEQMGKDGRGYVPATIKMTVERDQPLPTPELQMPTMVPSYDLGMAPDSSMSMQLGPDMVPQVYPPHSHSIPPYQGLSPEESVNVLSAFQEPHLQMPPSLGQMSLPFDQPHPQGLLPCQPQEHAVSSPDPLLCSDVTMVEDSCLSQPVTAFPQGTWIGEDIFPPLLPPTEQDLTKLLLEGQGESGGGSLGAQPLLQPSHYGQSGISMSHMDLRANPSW
Test: Stat6 Degrader Assay (HiBiT based, HeLa LgBiT clone 4.14)
Assay type: cell-based
Conditions: HeLa LgBiT clone 4.14 HiBiT-STAT6, 4-24 h incubation; values given for compounds with >80% Emax; geometric mean; read-out: STAT6 degradation DC50
reportedEndpoint: DC50 (nM)
Give bare numbers, in nM.

Record excerpt, results attached:
- compound: "CNc1ccn(-c2ccnc3c2cc([C@H](C)N2CC=C(c4c(C)cc(C(=O)N5CCC(CN6CCN(Cc7cc8c(cc7F)n([C@@H]7CCC(=O)NC7=O)c(=O)n8C7CC7)CC6)CC5)cc4F)CC2)n3C)c(=O)c1 (single isomer, unassigned)"
  DC50, nM: 1.4
- compound: "CNc1cc(=O)n(-c2ccnc3c2cc([C@H](C)N2CC=C(c4c(C)cc(C(=O)N5CCC(CN6CCN(c7ccc8c(c7)C7(CC7)C(=O)N8C7CCC(=O)NC7=O)CC6)CC5)cc4F)CC2)n3C)cc1F (some centres unmarked)"
  DC50, nM: 4.9
- compound: "CNc1cc(=O)n(-c2ccnc3c2cc([C@H](C)N2CC=C(c4c(C)cc(C(=O)N5CCC(CN6CCN(Cc7ccc8c(c7)n(C)c(=O)n8[C@H]7CCC(=O)NC7=O)CC6)CC5)cc4F)CC2)n3C)cc1F (single isomer, unassigned)"
  DC50, nM: 0.6
- compound: "CNc1cc(=O)n(-c2ccnc3c2cc(CN2CC=C(c4c(F)cc(C(=O)N5CCC(CN6CCN(Cc7ccc8c(c7)n(C)c(=O)n8[C@@H]7CCC(=O)NC7=O)C[C@@H]6C)CC5)cc4F)CC2)n3C)cc1F (single isomer, unassigned)"
  DC50, nM: 7.6
- compound: "CNc1ccn(-c2ccnc3c2cc([C@H](C)N2CC=C(c4c(C)cc(C(=O)N5CCC(CN6CCN(c7cc8c(cc7F)n(C7CCC(=O)NC7=O)c(=O)n8C)CC6)CC5)cc4F)CC2)n3C)c(=O)c1 (some centres unmarked)"
  DC50, nM: 0.7
- compound: "CNc1cc(=O)n(-c2ccnc3c2cc([C@H](C)N2CC=C(c4c(C)cc(C(=O)N5CCC(CN6CCN(Cc7ccc8c(c7)C(C)(C)C(=O)N8[C@@H]7CCC(=O)NC7=O)C[C@@H]6C)CC5)cc4F)CC2)n3C)cc1F (single isomer, unassigned)"
  DC50, nM: 3.8

For every item in the list below, what is its measured DC50?
1. Cc1cc(C(=O)N2CCC(CN3CCN(Cc4ccc5c(c4)n(C4CC4)c(=O)n5[C@H]4CCC(=O)NC4=O)C[C@@H]3C)CC2)cc(F)c1C1=CCN([C@@H](C)c2cc3c(-n4ccc5c(c4=O)CCN5)ccnc3n2C)CC1 (single isomer, unassigned)
2. CNc1ccn(-c2ccnc3c2cc(CN2CCC(c4c(C)cc(C(=O)N(C)c5ccc(C6CCN(Cc7ccc8c(c7)n(C)c(=O)n8C7CCC(=O)NC7=O)CC6)cc5)cc4F)CC2)n3C)c(=O)c1 (centres unmarked)
3. CNc1c(F)cn(-c2ccnc3c2cc([C@H](C)N2CC=C(c4c(C)cc(C(=O)N5CCC(CN6CCN(Cc7ccc8c(c7)C7(CC7)C(=O)N8C7CCC(=O)NC7=O)C[C@@H]6C)CC5)cc4F)CC2)n3C)c(=O)c1F (some centres unmarked)
4. CNc1ccn(-c2ccnc3c2cc(CN2CCC(c4c(F)cc(C(=O)N5CCC(CN6CCN(Cc7ccc8c(c7)n(C7CC7)c(=O)n8[C@@H]7CCC(=O)NC7=O)C[C@@H]6C)CC5)cc4F)CC2)n3C)c(=O)c1 (single isomer, unassigned)
5. Cc1cc(C(=O)N2CCC(CN3CCN(Cc4ccc5c(c4)n(C)c(=O)n5[C@H]4CCC(=O)NC4=O)C[C@@H]3C)CC2)cc(F)c1C1CCN(Cc2cc3c(-n4ccc5c(c4=O)CCN5)ccnc3n2C)CC1 (single isomer, unassigned)

1. 2
2. 0.2
3. 4
4. 2.6
5. 6

----------
Target: STAT6 (Homo sapiens)
Construct: These cells express endogenous STAT6; host or cells: HeLa LgBiT clone 4.14
Assay: Stat6 Degrader Assay (HiBiT based, HeLa LgBiT clone 4.14)
Type: cell-based
Conditions: HeLa LgBiT clone 4.14 HiBiT-STAT6, 4-24 h incubation; values given for compounds with >80% Emax; geometric mean; read-out: STAT6 degradation DC50
reportedEndpoint: DC50 (nM)
Answers are plain numbers, in nM.

- molecule: "CN(C(=O)c1cc(F)c(C2CCN(Cc3cc4c(-n5cc(F)c6c(c5=O)CCN6)ccnc4n3C)CC2)c(F)c1)c1ccc(C2CCN(Cc3ccc4c(c3)n(C)c(=O)n4C3CCC(=O)NC3=O)CC2)cc1 (centres unmarked)"
  u: "nM"
  DC50: 0.4
- molecule: "CNc1ccn(-c2ccnc3c2cc(CN2CC=C(c4c(C)cc(C(=O)N(C)c5ccc(C6CCN(Cc7ccc8c(c7)n(C)c(=O)n8C7CCC(=O)NC7=O)CC6)cc5)cc4F)CC2)n3C)c(=O)c1 (centres unmarked)"
  u: "nM"
  DC50: 0.04
- molecule: "CNc1ccn(-c2ccnc3c2cc([C@H](C)N2CCC(c4ccc(C(=O)N5CCC(CN6CCN(Cc7ccc8c(c7)C7(CC7)C(=O)N8C7CCC(=O)NC7=O)C[C@@H]6C)CC5)cc4)CC2)n3C)c(=O)c1 (mixture of isomers)"
  u: "nM"
  DC50: 1
- molecule: "CNc1cc(=O)n(-c2ccnc3c2cc(CN2CCC(c4c(F)cc(C(=O)N5CCC(CN6CCN(Cc7ccc8c(c7)C7(CC7)C(=O)N8[C@@H]7CCC(=O)NC7=O)C[C@@H]6C)CC5)cc4F)CC2)n3C)cc1F (single isomer, unassigned)"
  u: "nM"
  DC50: 1.9

Could you please provide reported DC50 for CNc1ccn(-c2ccnc3c2cc(CN2CCC(c4c(F)cc(C(=O)N5CCC(CN6CCN(Cc7ccc8c(c7)C7(CC7)C(=O)N8C7CCC(=O)NC7=O)C[C@@H]6C)CC5)cc4F)CC2)n3C)c(=O)c1 (some centres unmarked) ? Thanks! 1.5
